# System: 186277-243-T-J2-PDC complex spheroid growth, % test/control
# assay-overview: Anticancer human tumor 186277-243-T-J2-PDC patient-derived colon adenocarcinoma cell line growth inhibition [Asc]
# experimental-context: second compound 1 µM; first compound 10 µM; stronger effect = lower value
measure: viability, T/C (%)

{"compound": "C#Cc1c(F)ccc2cc(O)cc(-c3ncc4c(N5CC6CCC(C5)N6)nc(OCC56CCCN5CC(F)C6)nc4c3F)c12 (stereo not drawn) + Cc1c(S(C)(=O)=O)c(-c2cc(F)cc(N3CCN(c4ccc(NS(=O)(=O)c5ccc(NC(CCN6CCC(C(=O)OCCCP(=O)(O)O)CC6)CSc6ccccc6)c(S(=O)(=O)C(F)(F)F)c5)cc4)CC3)c2)c(-c2ccc(Cl)cc2)n1C(C)C", "result-number": 1.87}
{"compound": "C#Cc1c(F)ccc2cc(O)cc(-c3ncc4c(N5CC6CCC(C5)N6)nc(OCC56CCCN5CC(F)C6)nc4c3F)c12 (stereo not drawn) + CNC(C)C(=O)NC1CN(S(=O)(=O)c2cccc(S(=O)(=O)N3CCC4CCC(C(=O)NC(c5ccccc5)c5ccccc5)N4C(=O)C(NC(=O)C(C)NC)C3)c2)CCC2CCC(C(=O)NC(c3ccccc3)c3ccccc3)N2C1=O", "result-number": 6.64}
{"compound": "O=C(c1cc(Cc2n[nH]c(=O)c3ccccc23)ccc1F)N1CCN(C(=O)C2CC2)CC1 + CNC(C)C(=O)NC1CN(S(=O)(=O)c2cccc(S(=O)(=O)N3CCC4CCC(C(=O)NC(c5ccccc5)c5ccccc5)N4C(=O)C(NC(=O)C(C)NC)C3)c2)CCC2CCC(C(=O)NC(c3ccccc3)c3ccccc3)N2C1=O", "result-number": 159}

----------
# Test system: 186277-243-T-J2-PDC complex spheroid growth, % test/control
# assay-overview: Anticancer human tumor 186277-243-T-J2-PDC cell line growth inhibition [Asc]; active = viability on the fitted dose curve at most 10% of control; inactive = the rest;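 note: spheroids exposed to agents for 7 days; 100% = DMSO vehicle control wells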
# experimental-context: second compound 0.316 µM; first compound 1 µM
Classes used: True for active, False for inactive

{"compound": "C#Cc1c(F)ccc2cc(O)cc(-c3ncc4c(N5CC6CCC(C5)N6)nc(OCC56CCCN5CC(F)C6)nc4c3F)c12 (stereo unspecified) + Cc1c(S(C)(=O)=O)c(-c2cc(F)cc(N3CCN(c4ccc(NS(=O)(=O)c5ccc(NC(CCN6CCC(C(=O)OCCCP(=O)(O)O)CC6)CSc6ccccc6)c(S(=O)(=O)C(F)(F)F)c5)cc4)CC3)c2)c(-c2ccc(Cl)cc2)n1C(C)C", "tested-on": "186277-243-T-J2-PDC complex spheroid growth, % test/control", "discrete-label": "True"}
{"compound": "O=C(c1cc(Cc2n[nH]c(=O)c3ccccc23)ccc1F)N1CCN(C(=O)C2CC2)CC1 + Cc1c(S(C)(=O)=O)c(-c2cc(F)cc(N3CCN(c4ccc(NS(=O)(=O)c5ccc(NC(CCN6CCC(C(=O)OCCCP(=O)(O)O)CC6)CSc6ccccc6)c(S(=O)(=O)C(F)(F)F)c5)cc4)CC3)c2)c(-c2ccc(Cl)cc2)n1C(C)C", "tested-on": "186277-243-T-J2-PDC complex spheroid growth, % test/control", "discrete-label": "False"}
{"compound": "C=CC(=O)N1CCN(c2nc(=O)n(-c3c(C)ccnc3C(C)C)c3nc(-c4c(O)cccc4F)c(F)cc23)C(C)C1 (stereo unspecified) + CNC(C)C(=O)NC1CN(S(=O)(=O)c2cccc(S(=O)(=O)N3CCC4CCC(C(=O)NC(c5ccccc5)c5ccccc5)N4C(=O)C(NC(=O)C(C)NC)C3)c2)CCC2CCC(C(=O)NC(c3ccccc3)c3ccccc3)N2C1=O", "tested-on": "186277-243-T-J2-PDC complex spheroid growth, % test/control", "discrete-label": "False"}
{"compound": "CNC(C)C(=O)NC1CN(S(=O)(=O)c2cccc(S(=O)(=O)N3CCC4CCC(C(=O)NC(c5ccccc5)c5ccccc5)N4C(=O)C(NC(=O)C(C)NC)C3)c2)CCC2CCC(C(=O)NC(c3ccccc3)c3ccccc3)N2C1=O (stereo unspecified) + Cc1c(S(C)(=O)=O)c(-c2cc(F)cc(N3CCN(c4ccc(NS(=O)(=O)c5ccc(NC(CCN6CCC(C(=O)OCCCP(=O)(O)O)CC6)CSc6ccccc6)c(S(=O)(=O)C(F)(F)F)c5)cc4)CC3)c2)c(-c2ccc(Cl)cc2)n1C(C)C", "tested-on": "186277-243-T-J2-PDC complex spheroid growth, % test/control", "discrete-label": "False"}
{"compound": "C#Cc1c(F)ccc2cc(O)cc(-c3ncc4c(N5CC6CCC(C5)N6)nc(OCC56CCCN5CC(F)C6)nc4c3F)c12 (stereo unspecified) + CNC(C)C(=O)NC1CN(S(=O)(=O)c2cccc(S(=O)(=O)N3CCC4CCC(C(=O)NC(c5ccccc5)c5ccccc5)N4C(=O)C(NC(=O)C(C)NC)C3)c2)CCC2CCC(C(=O)NC(c3ccccc3)c3ccccc3)N2C1=O", "tested-on": "186277-243-T-J2-PDC complex spheroid growth, % test/control", "discrete-label": "False"}
{"compound": "C=C(F)C(=O)N1CCN(c2nc(OCC3CCCN3C)nc3c2CCN(c2cccc4cccc(Cl)c24)C3)CC1CC#N (stereo unspecified) + Cc1c(S(C)(=O)=O)c(-c2cc(F)cc(N3CCN(c4ccc(NS(=O)(=O)c5ccc(NC(CCN6CCC(C(=O)OCCCP(=O)(O)O)CC6)CSc6ccccc6)c(S(=O)(=O)C(F)(F)F)c5)cc4)CC3)c2)c(-c2ccc(Cl)cc2)n1C(C)C", "tested-on": "186277-243-T-J2-PDC complex spheroid growth, % test/control", "discrete-label": "False"}

----------
# Tested on: 186277-243-T-J2-PDC complex spheroid growth, % test/control
# assay-overview: Anticancer human tumor 186277-243-T-J2-PDC cell line growth inhibition [Asc]; active = viability on the fitted dose curve at most 10% of control; inactive = the rest;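 note: spheroids exposed to agents for 7 days; 100% = DMSO vehicle control wells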
# experimental-context: second compound 1 µM; first compound 1 µM
Classes used: yes (1) (active), no (0) (inactive)

{"compound": "O=C(c1ccc(F)c(F)c1Nc1ccc(I)cc1F)N1CC(O)([C@@H]2CCCCN2)C1 + Cc1c(S(C)(=O)=O)c(-c2cc(F)cc(N3CCN(c4ccc(NS(=O)(=O)c5ccc(NC(CCN6CCC(C(=O)OCCCP(=O)(O)O)CC6)CSc6ccccc6)c(S(=O)(=O)C(F)(F)F)c5)cc4)CC3)c2)c(-c2ccc(Cl)cc2)n1C(C)C", "discrete-label": "yes (1)"}
{"compound": "C#Cc1c(F)ccc2cc(O)cc(-c3ncc4c(N5CC6CCC(C5)N6)nc(OCC56CCCN5CC(F)C6)nc4c3F)c12 (configuration not stated) + CNC(C)C(=O)NC1CN(S(=O)(=O)c2cccc(S(=O)(=O)N3CCC4CCC(C(=O)NC(c5ccccc5)c5ccccc5)N4C(=O)C(NC(=O)C(C)NC)C3)c2)CCC2CCC(C(=O)NC(c3ccccc3)c3ccccc3)N2C1=O", "discrete-label": "no (0)"}
{"compound": "C#Cc1c(F)ccc2cc(O)cc(-c3ncc4c(N5CC6CCC(C5)N6)nc(OCC56CCCN5CC(F)C6)nc4c3F)c12 (configuration not stated) + Cc1c(S(C)(=O)=O)c(-c2cc(F)cc(N3CCN(c4ccc(NS(=O)(=O)c5ccc(NC(CCN6CCC(C(=O)OCCCP(=O)(O)O)CC6)CSc6ccccc6)c(S(=O)(=O)C(F)(F)F)c5)cc4)CC3)c2)c(-c2ccc(Cl)cc2)n1C(C)C", "discrete-label": "yes (1)"}
{"compound": "CCN1CCN(Cc2ccc(Nc3ncc(F)c(-c4cc(F)c5nc(C)n(C(C)C)c5c4)n3)nc2)CC1 + Cc1c(S(C)(=O)=O)c(-c2cc(F)cc(N3CCN(c4ccc(NS(=O)(=O)c5ccc(NC(CCN6CCC(C(=O)OCCCP(=O)(O)O)CC6)CSc6ccccc6)c(S(=O)(=O)C(F)(F)F)c5)cc4)CC3)c2)c(-c2ccc(Cl)cc2)n1C(C)C", "discrete-label": "no (0)"}
{"compound": "O=C(c1cc(Cc2n[nH]c(=O)c3ccccc23)ccc1F)N1CCN(C(=O)C2CC2)CC1 + CNC(C)C(=O)NC1CN(S(=O)(=O)c2cccc(S(=O)(=O)N3CCC4CCC(C(=O)NC(c5ccccc5)c5ccccc5)N4C(=O)C(NC(=O)C(C)NC)C3)c2)CCC2CCC(C(=O)NC(c3ccccc3)c3ccccc3)N2C1=O", "discrete-label": "no (0)"}
{"compound": "O=C(c1cc(Cc2n[nH]c(=O)c3ccccc23)ccc1F)N1CCN(C(=O)C2CC2)CC1 + Cc1c(S(C)(=O)=O)c(-c2cc(F)cc(N3CCN(c4ccc(NS(=O)(=O)c5ccc(NC(CCN6CCC(C(=O)OCCCP(=O)(O)O)CC6)CSc6ccccc6)c(S(=O)(=O)C(F)(F)F)c5)cc4)CC3)c2)c(-c2ccc(Cl)cc2)n1C(C)C", "discrete-label": "no (0)"}
{"compound": "COc1c(OCCCN2CCOCC2)ccc2c3n(c(=NC(=O)c4cnc(N)nc4)nc12)CCN3 + Cc1c(S(C)(=O)=O)c(-c2cc(F)cc(N3CCN(c4ccc(NS(=O)(=O)c5ccc(NC(CCN6CCC(C(=O)OCCCP(=O)(O)O)CC6)CSc6ccccc6)c(S(=O)(=O)C(F)(F)F)c5)cc4)CC3)c2)c(-c2ccc(Cl)cc2)n1C(C)C", "discrete-label": "yes (1)"}

These measurements were taken from PubChem BioAssay AID1963426.
